- test.target: CaHse1
- assay.name: SPOT peptide array binding signal intensity (averaged, normalized) (arbitrary units (background-subtracted, floor 0; scale differs between SH3 domains)); higher = stronger binding of the SH3 domain to the peptide
Threshold check on SPOT peptide array binding signal intensity: at or above 2 gives fulfilled, strictly below gives not fulfilled.

>>> group("MKRSRPSRSIPYTTP")
"fulfilled"
>>> group("SSTPTTPERPKRKSG")
"not fulfilled"
>>> group("ISRRRLPVIMHRLKM")
"fulfilled"
>>> group("NPTKSPPPPPSPSTM")
"fulfilled"
>>> group("DKSRPPRPPPKPLHL")
"fulfilled"
>>> group("IPSRPAPKPPSSASA")
"not fulfilled"
